Hey, just so you know, these numbers are from patent US6197495A.

Target: Staphylococcus aureus glycyl tRNA synthetase (GRS), SEQ ID NO:1 (Staphylococcus aureus, UniProt P99129)
Construct: purified enzyme or crude lysate; homodimer
Sequence (P99129 whole entry): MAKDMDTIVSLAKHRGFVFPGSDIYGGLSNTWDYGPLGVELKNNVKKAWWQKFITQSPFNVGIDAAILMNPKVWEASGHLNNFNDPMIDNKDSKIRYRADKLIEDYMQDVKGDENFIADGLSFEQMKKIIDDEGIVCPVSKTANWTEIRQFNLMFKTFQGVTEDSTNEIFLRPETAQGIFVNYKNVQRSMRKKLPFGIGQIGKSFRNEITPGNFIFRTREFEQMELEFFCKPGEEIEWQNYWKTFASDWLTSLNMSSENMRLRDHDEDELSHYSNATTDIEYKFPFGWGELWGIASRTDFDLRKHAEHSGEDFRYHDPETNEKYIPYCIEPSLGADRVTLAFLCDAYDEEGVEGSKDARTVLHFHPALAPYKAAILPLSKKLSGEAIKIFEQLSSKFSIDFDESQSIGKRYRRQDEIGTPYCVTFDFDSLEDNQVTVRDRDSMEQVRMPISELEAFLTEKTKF
Assay: Stopped-flow tryptophan fluorescence measurement of inhibitor binding to GRS
Conditions: estimate from the ratio of koff and kon
value_kind: pKd
In textbook form, pKd equals minus log to base ten of the concentration in mol/L.

I am curious: what pKd value has been reported for NCC(=O)NS(=O)(=O)OC[C@H]1O[C@@H](n2cnc3c(N)ncnc32)[C@H](O)[C@@H]1O [glycylsulfamoyladenosine, 5'-O-Glycylsulfamoyladenosine] ?
5.59
